Measured values drawn from ChEMBL document CHEMBL1201862 for this set.

List of GI50 values.
# Tested on: A498
# EXPERIMENT_DESCRIPTION: NCI tumour cell line growth inhibition, 48 h
Active and inactive are the calls of the source. No stated cut-off is given here; in the data, active = GI50 up to about 1.1 µM and inactive = higher.

{"COMPOUND": "COc1ccc(C2SC(=N)Nc3c2c(C)nn3C(=O)c2ccccc2O)cc1OC (stereo unspecified)", "GI50": "5.93 µM (inactive)"}
{"COMPOUND": "COc1ccc2c3c1OC1C(OC)(OC)CC4(C=C2)CN(C)CCC314 (stereo unspecified)", "GI50": "28.6 µM (inactive)"}
{"COMPOUND": "O=C1NN=CN2C(=O)CCC12 (stereo unspecified)", "GI50": "> 100 µM (inactive)"}
{"COMPOUND": "O=C1C=CC=C/C1=C1\\N=C(c2ccccc2OCC(=O)c2ccccc2)SS1", "GI50": "> 100 µM (inactive)"}
{"COMPOUND": "C=C1CC[C@@H](Br)C(C)(C)[C@]12CCC(C)(O)C(Cl)C2 (stereo partly specified)", "GI50": "28.9 µM (inactive)"}
{"COMPOUND": "Cc1ccc(N2C3=C(CC4=C2CC(C)(C)CC4=O)C(=O)CC(C)(C)C3)cc1", "GI50": "> 100 µM (inactive)"}
{"COMPOUND": "Nc1ccc2c(c1)S(=O)(=O)c1cc(N)ccc1-2", "GI50": "> 100 µM (inactive)"}
{"COMPOUND": "Cc1[nH]c(-c2ccccc2)c2nc(N(C)C)oc(=O)c12", "GI50": "> 100 µM (inactive)"}
{"COMPOUND": "CCN(CC)Cc1c(/C=C\\c2cc(OC)c(OC)c(OC)c2)ccc(OC)c1O", "GI50": "6.22 µM (inactive)"}
{"COMPOUND": "C=CCN(C)CN(C)c1nc(N(C)C)nc(N(C)C)n1", "GI50": "> 100 µM (inactive)"}
{"COMPOUND": "COC(=O)C1=C(c2ccc3c(c2)OCO3)OC(c2cc(OC)c(OC)c(OC)c2)C1 (stereo unspecified)", "GI50": "2.43 µM (inactive)"}
